# System: Clostridium sporogenes DSM 1664
# Protocol notes: growth (OD595) fold change vs plate DMSO controls (fold change (ratio)); higher = more growth
# Condition details: incubation time: 27 h, anaerobic, 37 °C
Structures can show the parent of a compound that is named as a salt.
The label depends only on growth: criterion met if it is at least 1, criterion not met if it is smaller.

Solved entries (count: 5):
Compound	Target under test	Class label
COc1ccc(C[C@@H]2c3cc(OC)c(OC)cc3CC[N@+]2(C)CCC(=O)OCCCCCOC(=O)CC[N@@+]2(C)CCc3cc(OC)c(OC)cc3[C@H]2Cc2ccc(OC)c(OC)c2)cc1OC [Cisatracurium besylate] (20 µM)	Clostridium sporogenes DSM 1664	criterion met
CC(=O)c1ccc(S(=O)(=O)NC(=O)NC2CCCCC2)cc1 [Acetohexamide] (20 µM)	Clostridium sporogenes DSM 1664	criterion not met
CN(CCOc1ccc(CC2SC(=O)NC2=O)cc1)c1ccccn1 (stereo unspecified) [Rosiglitazone hydrochloride] (20 µM)	Clostridium sporogenes DSM 1664	criterion met
CCCCCCC[N+](CC)(CC)CCCCc1ccc(Cl)cc1 [Clofilium tosylate] (20 µM)	Clostridium sporogenes DSM 1664	criterion met
CC(=O)OC[C@H]1O[C@@H](n2ncc(=O)[nH]c2=O)[C@H](OC(C)=O)[C@@H]1OC(C)=O [Azaribine] (20 µM)	Clostridium sporogenes DSM 1664	criterion met

Tell me whether growth is at least 1 here: COc1ccc(C(=O)c2ccccc2O)c(O)c1 [Dioxybenzone] (20 µM) criterion not met

Threshold query (growth >= 1) on Clc1ccc2c(c1)CCc1cccnc1C2=C1CCNCC1 [Desloratadine] (20 µM) criterion not met

Quick check, growth >= 1? COc1ccnc(C[S+]([O-])c2nc3cc(OC(F)F)ccc3[nH]2)c1OC (stereo unspecified) [Pantoprazole sodium] (20 µM) criterion met

###

# Test system: Clostridium sporogenes DSM 1664
# Protocol notes: fold change of Tryptamine concentration vs plate DMSO controls (fold change (ratio)); higher = more amine produced, active = hit call of the paper (significant change in both replicates, either direction)
# Condition details: incubation time: 27 h, anaerobic, 37 °C
Where a name gives a salt, the structure may show the parent alone.
Measured parameter: fold change of Tryptamine concentration
Provide a numeric answer; units are not to be included.

Compound	Measured parameter	Recorded value
CCCC(=O)Nc1ncnc2c1ncn2[C@@H]1O[C@@H]2COP(=O)(O)O[C@H]2[C@H]1OC(=O)CCC [Bucladesine sodium salt] (20 µM)	fold change of Tryptamine concentration	0.976

Missing value: fold change of Tryptamine concentration, Clostridium sporogenes DSM 1664, entry OC[C@H]1O[C@@H](n2cnc3cncnc32)[C@H](O)[C@@H]1O [Nebularine] (20 µM) . Fill in? 0.874

// lookup fold change of Tryptamine concentration | system=Clostridium sporogenes DSM 1664 | key= O=C1NCCN1c1ncc([N+](=O)[O-])s1 [Niridazole] (20 µM) 0.0363

Lab request: please report fold change of Tryptamine concentration under test system Clostridium sporogenes DSM 1664 for CN(C(=O)C(Cl)Cl)c1ccc(OC(=O)c2ccco2)cc1 [Diloxanide furoate] (20 µM) 0.918

// fetch Clostridium sporogenes DSM 1664 fold change of Tryptamine concentration for CC1=C(C)C(=O)C(C(CCCCCC(=O)O)c2ccccc2)=C(C)C1=O (stereo unspecified) [Seratrodast] (20 µM) 1.01

Recorded fold change of Tryptamine concentration for C[C@]12CC[C@@H]3c4ccc(O)cc4C[C@@H](CCCCCCCCC[S+]([O-])CCCC(F)(F)C(F)(F)F)[C@H]3[C@@H]1CC[C@@H]2O (stereo partly specified) [Fulvestrant] (20 µM) with Clostridium sporogenes DSM 1664, please? 0.98
